target: human RORγt (Homo sapiens, UniProt P51449); assay: RORE Luciferase/RORγt transactivation assay; format: cell-based; parameters: the full-length cDNA of human RORγt; V5-His (encoded by the vector); expressed in transfected cells; host or cells: COS-7 (monkey kidney); conditions: COS-7 cells transfected with human IL-17 promoter luciferase reporter and RORγt plasmid, 20 h; read-out: IC50, RORγt activity inhibition (luciferase reporter)
Sequence (P51449 1-497 isoform P51449-2): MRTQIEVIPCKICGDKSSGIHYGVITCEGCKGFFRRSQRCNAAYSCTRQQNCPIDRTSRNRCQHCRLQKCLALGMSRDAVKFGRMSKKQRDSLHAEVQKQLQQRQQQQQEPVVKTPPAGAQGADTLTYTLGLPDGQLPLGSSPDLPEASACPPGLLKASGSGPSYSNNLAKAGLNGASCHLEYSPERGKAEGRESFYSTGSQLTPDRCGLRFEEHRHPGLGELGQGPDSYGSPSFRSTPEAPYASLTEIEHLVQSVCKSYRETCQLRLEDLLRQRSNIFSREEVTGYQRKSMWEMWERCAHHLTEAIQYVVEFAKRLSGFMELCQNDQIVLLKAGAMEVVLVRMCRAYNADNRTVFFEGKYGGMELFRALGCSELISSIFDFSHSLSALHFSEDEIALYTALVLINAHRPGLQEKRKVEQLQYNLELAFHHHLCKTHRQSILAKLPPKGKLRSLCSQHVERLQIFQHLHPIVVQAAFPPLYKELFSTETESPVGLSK
measured parameter: IC50

molecule: COc1ccc(C(NC(=O)Cc2cc(N3CCN(C(C)=O)CC3)ccc2C)c2ccc(C)o2)c(N2CCCCCC2)c1 (stereo not shown)
observed measurement: 100 to 1000 nM

molecule: Cc1ccc(C(NC(=O)Cc2cc(N3CCN(C(=O)OC(C)(C)C)CC3)ccc2C)c2ccc(C)o2)c(N2CCCCC2)c1 (stereo not shown)
observed measurement: 100 to 1000 nM

molecule: Cc1ccc(C(NC(=O)Cc2cc(N3CCN(S(C)(=O)=O)CC3)ccc2F)c2ccc(C)o2)c(N2CCCCC2)c1 (stereo not shown)
observed measurement: 100 to 1000 nM

molecule: Cc1ccc(C(NC(=O)Cc2ccc(N3CCC(S(C)(=O)=O)CC3)cc2)c2ccc(C)o2)c(N2CCCCC2)c1 (stereo not shown)
observed measurement: < 100 nM

molecule: CC(=O)N1CCN(c2cccc(CC(=O)NC(c3ccc(C)o3)c3ccc(C)cc3N3CCCCC3)c2)CC1 (stereo not shown)
observed measurement: < 100 nM

molecule: CC(=O)C1CCN(c2ccc(CC(=O)NC(c3ccc(C)o3)c3ccc(C)cc3N3CCCCC3)cc2)CC1 (stereo not shown)
observed measurement: < 100 nM

molecule: Cc1ccc(C(NC(=O)Cc2cc(N3CCC(S(C)(=O)=O)CC3)ccc2F)c2ccc(C)o2)c(N2CCCCC2)c1 (stereo not shown)
observed measurement: < 100 nM

Numbers sourced from patent US10987351B2.
